# Tested on: large crabgrass (Digitaria sanguinalis)
# TEST SUMMARY: Test D pre-/postemergence plant response
# Format: in vivo
# SETUP CONDITIONS: Postemergence, 125 g ai/ha; scale 0 to 100 (0 no effect, 100 complete control)
REPORTED PROPERTY: Plant response rating, Crabgrass, Large
Give the figure only, with no unit attached.

> print(dat)
                                   molecule                        reported.property  readout.number
1  O=C1CCCC(O)=C1C(=O)c1cnc(-c2ccccc2)n(C2CCCCC2)c1=O  Plant response rating, Crabgrass, Large              70
2  O=C1CCCC(O)=C1C(=O)c1cnc(-c2cccs2)n(-c2ccccc2)c1=O  Plant response rating, Crabgrass, Large              35
3  Cc1ccc(Cl)cc1-n1c(-c2ccccc2)ncc(C(=O)C2=C(O)CCCC2=O)c1=O  Plant response rating, Crabgrass, Large              70

Task: I am curious: what Plant response rating, Crabgrass, Large value has been reported for COCCCn1c(-c2cc(F)cc(F)c2)ncc(C(=O)C2=C(O)C3CCC(C3)C2=O)c1=O (centres unmarked) ?
Output: 75

Task: I am curious: what Plant response rating, Crabgrass, Large value has been reported for CCCn1c(-c2ccccc2)ncc(C(=O)C2=C(O)C3CCC(C3)C2=O)c1=O (centres unmarked) ?
Output: 75
